experimental_system: T1, recombinant human IL-23R/Fc chimera (R&D Systems) (human, UniProt Q5VWK5 24-355)
T1 construct: Bought; also called rhIL23RFc
T1 sequence (looked up): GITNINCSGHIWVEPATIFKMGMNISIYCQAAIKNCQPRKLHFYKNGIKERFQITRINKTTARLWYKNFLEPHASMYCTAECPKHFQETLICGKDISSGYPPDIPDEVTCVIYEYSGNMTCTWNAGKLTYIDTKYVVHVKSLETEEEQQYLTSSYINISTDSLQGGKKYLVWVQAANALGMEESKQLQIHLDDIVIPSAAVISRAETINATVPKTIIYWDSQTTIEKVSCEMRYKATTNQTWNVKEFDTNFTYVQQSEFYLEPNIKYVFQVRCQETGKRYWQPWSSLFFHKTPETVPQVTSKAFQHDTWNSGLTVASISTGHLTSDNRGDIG
procedure_text: SPR
Please provide measured kon for the entries that follow.
One number for each entry, in M⁻¹ s⁻¹.

The following binders have reported results that may help.
>>> obs_value("105-08-2G10 ATRIMER complex (designed binder) EPPTQKPKKIVNAKKDVVNTKMFEELKSRLDTLAQEVALLKEQQALQTVCLKGTKVHMKCFLAFTQTKTFHEASEDCISRGGTLSTPQTGSENDALYEYLRQSVGNEAEIWLGLNGSPLTDTWVDMTGARIAYKNWETEITAQPDGGFGYFGENCAVLSGAANGKWFDKRCRDQLPYICQFGIV")
302000
>>> obs_value("101-51-1A6 ATRIMER complex (designed binder, Forms a homotrimer through the tetranectin coiled coil; one protomer is given., not shown: C-terminal tag: His/Myc (pANA4) or HA-StrepII (pANA10)) EPPTQKPKKIVNAKKDVVNTKMFEELKSRLDTLAQEVALLKEQQALQTVCLKGTKVHMKCFLAFTQTKTFHEASEDCISRGGTLSTPQTGSENDALYEYLRQSVGNEAEIWLGLNGSALTNTWVDMTGARIAYKNWENNLSAQPRGGFGYFGENCAVLSGAANGKWFDKRCRDQLPYICQFGIV")
557000

Below: the item to evaluate.
Look up and report measured kon for this entry: 105-08-2F6 ATRIMER complex (designed binder) EPPTQKPKKIVNAKKDVVNTKMFEELKSRLDTLAQEVALLKEQQALQTVCLKGTKVHMKCFLAFTQTKTFHEASEDCISRGGTLSTPQTGSENDALYEYLRQSVGNEAEIWLGLNGSAYTNTWVDMTGARIAYKNWETEITAQPDGGFGYFGENCAVLSGAANGKWFDKRCRDQLPYICQFGIV
550000
